Assembled from different publications: IC50 for UniProt P12931.

# molecule, IC50
rows = [
    ("C=CC(=O)N1CCC(N2CC(F)(C#Cc3c(-c4ccc(Oc5cccc(C)n5)c(OC)c4)c4c(N)ncnc4n3C)C2)CC1", "10 to 1000 nM"),
    ("CC(C)(C)c1cc(NC(=O)Nc2ccc(Oc3ccnc(Nc4ccc5[nH]ncc5c4)n3)c3ccccc23)n(-c2ccc(O)cc2)n1", "10 nM"),
    ("CC(CNC(=O)c1nc2nc(Nc3ccc(F)cc3)ncc2cc1-c1ccccc1Br)N(C)C (centres unmarked)", "23.9 nM"),
    ("CC(C)N1CCC(C#Cc2c(-c3ccc(Oc4ccccc4)cc3)c3c(N)ncnc3n2C(C)C)CC1", "≤ 10 nM"),
    ("COCCCNc1cc(-c2nc3cc(NC(=O)c4ccccc4Cl)cnc3[nH]2)ccn1", "5 to 300 nM"),
]

INPUT: Lab note: need IC50 with UniProt P12931 for entry CC(C)(C)c1cc(NC(=O)Nc2ccc(Oc3ccnc(Nc4ccccc4)n3)c3ccccc23)n(-c2ccc(P(C)(C)=O)cc2)n1 , please look it up.
OUTPUT: 15 nM

INPUT: Request: IC50, test system UniProt P12931, entry COCCOc1ccc(Nc2ncnc(-n3c(N)nc4ccccc43)n2)cc1OC
OUTPUT: > 11000 nM

INPUT: What measured IC50 is associated with CNc1nc2ccccc2n1-c1ncnc(Nc2cc(OC)c(OC)c(OC)c2)n1 on UniProt P12931?
OUTPUT: 982 to 5890 nM

INPUT: Requested read-out IC50, target or system UniProt P12931, entry COc1cc(Nc2ncnc(-n3c(NCc4cccc(C)c4)nc4ccccc43)n2)cc(OC)c1OC
OUTPUT: > 9040 nM

INPUT: Form: Entry = COCCOc1ccc(-c2cc3cc(NC(=O)OC(C)C)cnc3[nH]2)cc1 | System = UniProt P12931 | IC50 = ____
OUTPUT: 10 to 500 nM

INPUT: Entry Cc1ccc(NC(=O)N2CCCCC2)cc1N1CCc2nc(Nc3ccc(OCCN4CCCC4)cc3)ncc2C1 , system UniProt P12931: what IC50 was measured?
OUTPUT: 1 nM

INPUT: Given the entry CCCC(=O)Nc1ccc(F)c(C(O)c2c[nH]c3ncc(-c4cccnc4)cc23)c1F (centres unmarked) , what IC50 was observed with UniProt P12931?
OUTPUT: ≤ 10000 nM

INPUT: Give IC50 (UniProt P12931) of the following molecule: Nc1ncc(NC(=O)c2cc(NC(=O)c3cccc(C(F)(F)F)c3)ccc2Cl)cn1
OUTPUT: 72 nM

INPUT: Please provide the recorded IC50 for COC(=O)c1cc2cc(NC(=O)c3c(C)cccc3Cl)cnc2[nH]1 , tested on UniProt P12931.
OUTPUT: 1 to 100 nM
